System: Plasma
ASSAY_OVERVIEW: Fraction unbound in mouse plasma by equilibrium dialysis method
Assay type: ADME, cell-free
Please note: Fu exactly at 0.6 is Not met. Only values below 0.6 get Met.

Example entries begin here.
# COMPOUND, CLASS_LABEL
records = [
    ("COc1ccc(C(=O)NCc2cc(C(C)C)no2)cc1OCCN1CCCCC1", "Not met"),
    ("CCn1nc(C)c(CNC(=O)c2ccc(OC)c(OC3CCN(C(C)C)CC3)c2)c1C", "Met"),
    ("COc1ccc(C(=O)NCc2cc(C(C)C)no2)cc1OC1CCN(C)CC1", "Met"),
    ("COc1ccc(C(=O)NCc2cc(C(C)C)no2)cc1OC1CCN(C(C)C)CC1", "Met"),
    ("COc1ccc(C(=O)NC(C)Cc2ccccn2)cc1OC1CCN(C(C)C)CC1 (stereo unspecified)", "Met"),
]

Now look at this one.
input: Identify whether the compound "COc1ccc(C(=O)NCc2csc(C)n2)cc1OC1CCN(C(C)C)CC1" records Fu below 0.6.
output: Met

###

TARGET_OF_ASSAY: High affinity choline transporter 1 (Homo sapiens, UniProt Q9GZV3, L531A/V532A)
Sequence (Q9GZV3 whole entry L531A/V532A): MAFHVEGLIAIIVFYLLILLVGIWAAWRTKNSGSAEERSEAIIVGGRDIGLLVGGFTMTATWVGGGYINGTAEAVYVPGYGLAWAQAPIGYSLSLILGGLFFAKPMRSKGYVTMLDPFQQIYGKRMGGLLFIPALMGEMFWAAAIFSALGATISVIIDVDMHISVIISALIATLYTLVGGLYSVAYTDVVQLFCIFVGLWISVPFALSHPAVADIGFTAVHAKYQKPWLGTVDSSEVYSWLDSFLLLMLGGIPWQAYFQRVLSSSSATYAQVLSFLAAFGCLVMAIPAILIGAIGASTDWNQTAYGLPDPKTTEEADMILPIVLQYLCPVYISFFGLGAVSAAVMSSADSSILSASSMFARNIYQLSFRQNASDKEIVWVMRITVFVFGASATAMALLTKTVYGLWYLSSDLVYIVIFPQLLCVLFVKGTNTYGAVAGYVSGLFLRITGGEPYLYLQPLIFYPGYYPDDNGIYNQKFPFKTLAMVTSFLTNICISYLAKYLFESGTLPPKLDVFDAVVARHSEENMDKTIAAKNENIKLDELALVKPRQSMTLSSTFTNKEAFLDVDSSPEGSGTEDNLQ
ASSAY_OVERVIEW: Inhibition of human CHT […] mutant expressed in HEK293 cells assessed as remaining transporter activity in presence of 10 uM [3H]choline by [3H]choline uptake assay
Assay type: cell-based
METRIC_NAME: pIC50
Answers are plain numbers, as −log10 of the molar value.

# COMPOUND, TARGET_OF_ASSAY, pIC50
records = [
    ("COc1ccc(C(=O)NCc2cc(C)n(C)n2)cc1OC1CCN(C(C)C)CC1", "High affinity choline transporter 1 (Homo sapiens, UniProt Q9GZV3, L531A/V532A)", 5.60),
]

For every listed record, write down its pIC50.
1. COc1ccc(C(=O)NC(C)Cc2ccccn2)cc1OC1CCN(C(C)C)CC1 (stereo not given)
2. COc1ccc(C(=O)NCc2cc(C(C)C)no2)cc1OCCN1CCOCC1

output:
1: 5.76; 2: 5.75

For every listed record, write down its pIC50.
1. CCn1cc(CNC(=O)c2ccc(OC)c(OC3CCN(C(C)C)CC3)c2)cn1
2. COc1ccc(C(=O)NCc2cc(C(C)C)no2)cc1OCCN1CCCCC1
3. COc1ccc(C(=O)NCc2cc(C(C)C)no2)cc1OC1CCCN(C)C1 (stereo not given)
4. COc1ccc(C(=O)NCc2csc(C)n2)cc1OC1CCN(C(C)C)CC1
5. CCn1nc(C)c(CNC(=O)c2ccc(OC)c(OC3CCN(C(C)C)CC3)c2)c1C
6. COc1ccc(C(=O)NCc2nc(C)cs2)cc1OC1CCN(C(C)C)CC1
7. COc1ccc(C(=O)NCCN2CCCC2)cc1OC1CCN(C(C)C)CC1

output:
[5.73, 6.28, 5.34, 5.79, 6.04, 5.99, 5.81]

###

Exercise: for every item that follows, state its recorded pIC50.
TARGET_OF_ASSAY: Cytochrome P450 1A2 (Homo sapiens, UniProt P05177)
Sequence (P05177 whole entry): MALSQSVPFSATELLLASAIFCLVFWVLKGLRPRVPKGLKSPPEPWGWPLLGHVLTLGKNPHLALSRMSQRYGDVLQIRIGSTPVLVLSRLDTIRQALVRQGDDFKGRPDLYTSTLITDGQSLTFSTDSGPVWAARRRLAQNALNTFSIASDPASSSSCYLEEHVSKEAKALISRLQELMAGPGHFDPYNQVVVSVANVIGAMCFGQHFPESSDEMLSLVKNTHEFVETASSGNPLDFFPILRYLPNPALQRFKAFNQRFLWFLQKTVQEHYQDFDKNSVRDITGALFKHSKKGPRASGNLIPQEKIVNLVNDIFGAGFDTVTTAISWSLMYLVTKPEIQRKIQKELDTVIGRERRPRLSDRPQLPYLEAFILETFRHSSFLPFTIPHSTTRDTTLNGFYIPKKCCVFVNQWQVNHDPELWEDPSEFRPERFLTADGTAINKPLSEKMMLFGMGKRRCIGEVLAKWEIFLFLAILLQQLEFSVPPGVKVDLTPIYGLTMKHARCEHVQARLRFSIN
ASSAY_OVERVIEW: Inhibition of human CYP1A2
Format: ADME
pIC50: −log10 of the molar value.

For every listed record, write down its pIC50.
1. COc1ccc(C(=O)NCc2cc(C(C)C)no2)cc1OCCN1CCCCC1
2. COc1ccc(C(=O)NCc2cc(C(C)C)no2)cc1OC1CCN(C(C)C)CC1
3. CCn1nc(C)c(CNC(=O)c2ccc(OC)c(OC3CCN(C(C)C)CC3)c2)c1C

output:
1: < 4.52; 2: < 4.52; 3: < 4.52

For every listed record, write down its pIC50.
1. COc1ccc(C(=O)NCc2csc(C)n2)cc1OC1CCN(C(C)C)CC1
2. COc1ccc(C(=O)NC(C)Cc2ccccn2)cc1OC1CCN(C(C)C)CC1 (stereo unspecified)
3. COc1ccc(C(=O)NCc2cc(C(C)C)no2)cc1OC1CCN(C)CC1

output:
1. 4.99
2. < 4.52
3. < 4.52
